The measurements presented in this section are drawn from patent US20110076723A1.

Biological target: T1, recombinant hAng-2 (recombinant protein with His tag attached to human Ang-2; R&D Systems) (human, UniProt O15123 19-496)
T1 construct: also called angiopoietin-2; ANGPT2
T1 sequence (looked up): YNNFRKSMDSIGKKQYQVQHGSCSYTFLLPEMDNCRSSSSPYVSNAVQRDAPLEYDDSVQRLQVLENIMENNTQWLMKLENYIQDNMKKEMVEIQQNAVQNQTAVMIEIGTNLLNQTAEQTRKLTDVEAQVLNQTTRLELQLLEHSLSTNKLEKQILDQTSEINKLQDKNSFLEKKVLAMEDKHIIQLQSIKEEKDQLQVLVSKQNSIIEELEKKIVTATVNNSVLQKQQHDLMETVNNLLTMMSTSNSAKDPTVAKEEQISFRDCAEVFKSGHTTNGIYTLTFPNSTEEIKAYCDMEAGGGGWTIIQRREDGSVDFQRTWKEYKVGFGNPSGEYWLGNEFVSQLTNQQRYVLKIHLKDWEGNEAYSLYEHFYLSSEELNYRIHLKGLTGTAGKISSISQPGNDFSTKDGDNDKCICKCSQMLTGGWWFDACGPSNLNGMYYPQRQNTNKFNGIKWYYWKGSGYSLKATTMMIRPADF
Experiment: competitive ELISA; synergibody titrated with 1 nM hAng-2 (His) on coated hTie2-Fc
pIC50: −log10 of the molar value.
Parameter pIC50: see the listing below.
metric: pIC50

binder	readout-value
Syn-Ang-VEGFR-17 (other, Chimeric (human IgG1) SAITAng-2-4 with the peptide at the C-terminus of the heavy chain; also called SAITAng-2-4 x DTN8VEGFR-2-2; not shown: human IgG1 heavy chain constant region with Fc region, from the vector; human light chain constant region, printed as 'constant region of human IgG1') heavy (part 1 of 2): QVQLQQSGAELARPGASVKLSCKASGYTFTDYYINWAKQRTGQGLEWIGEIYPGSGDTYYNEKFKGKATLTADKSSSTAYMQLSSLTSEDSAVYFCARYGYKGVYFDYWGQSTTLTVSS heavy (part 2 of 2): EAGKETCGYEWQYCPRP light: ENVLTQSPAIMAASLGQKVTMTCSASSSVSSSYLHWYQQKSGASPKPLIHRTSNLASGVPARFSGSGSGTSYSLTISSVEAEDDATYYCQQWSGYPFTFGAGTKLELK	9.00
Syn-Ang-VEGFR-16 (other, Chimeric (human IgG1) SAITAng-2-4 with the peptide at the C-terminus of the heavy chain; also called SAITAng-2-4 x DTN6VEGFR-2-1; not shown: human IgG1 heavy chain constant region with Fc region, from the vector; human light chain constant region, printed as 'constant region of human IgG1') heavy (part 1 of 2): QVQLQQSGAELARPGASVKLSCKASGYTFTDYYINWAKQRTGQGLEWIGEIYPGSGDTYYNEKFKGKATLTADKSSSTAYMQLSSLTSEDSAVYFCARYGYKGVYFDYWGQSTTLTVSS heavy (part 2 of 2): TGSDDLCYTFPCMHY light: ENVLTQSPAIMAASLGQKVTMTCSASSSVSSSYLHWYQQKSGASPKPLIHRTSNLASGVPARFSGSGSGTSYSLTISSVEAEDDATYYCQQWSGYPFTFGAGTKLELK	8.92
Syn-Ang-VEGFR-18 (other, Chimeric (human IgG1) SAITAng-2-4 with the peptide at the C-terminus of the heavy chain; also called SAITAng-2-4 x DTN9VEGFR-2-3; not shown: human IgG1 heavy chain constant region with Fc region, from the vector; human light chain constant region, printed as 'constant region of human IgG1') heavy (part 1 of 2): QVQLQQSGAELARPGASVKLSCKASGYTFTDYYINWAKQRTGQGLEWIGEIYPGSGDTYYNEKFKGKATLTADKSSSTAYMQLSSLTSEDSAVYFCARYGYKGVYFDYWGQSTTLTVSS heavy (part 2 of 2): EAGAYWCKAWGLSPCLVT light: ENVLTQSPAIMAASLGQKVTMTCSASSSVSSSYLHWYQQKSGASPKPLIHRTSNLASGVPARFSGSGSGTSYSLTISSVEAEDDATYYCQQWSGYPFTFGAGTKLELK	8.86
